B1: TPR t1 (parent)
chain: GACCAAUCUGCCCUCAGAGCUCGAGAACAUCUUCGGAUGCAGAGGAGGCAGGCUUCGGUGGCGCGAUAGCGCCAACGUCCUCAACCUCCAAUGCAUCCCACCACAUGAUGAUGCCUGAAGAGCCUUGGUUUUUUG

Variants of: B1
Test: polymerase ribozyme fitness, log enrichment relative to wild type (log ratio); higher = more active; in vitro selection for triplet polymerase activity
metric: polymerase ribozyme fitness (log ratio)
Answers are plain numbers.

   variantid                                   metric  measured
0  G10A G61A  polymerase ribozyme fitness (log ratio)     0.248

Could you tell me polymerase ribozyme fitness (log ratio) for each of these variants? They are listed below.
1. A2C G42A A46G G69U C115G
2. A66C C85U C88A
3. G17A A41C G117U
4. C70G C86A
5. C56G C98G
6. C89U U126C
7. C12U C20G A43C G48A

-4.92
-1.61
-3.91
-4.89
-4.96
-1.11
-5.39
